Molecular target: T1, recombinant human Tim-3-Fc (R&D Systems, 2365-TM) (human, UniProt Q8TDQ0 22-202, biotinylated in the Galectin-9 competition ELISA (sites not given))
T1 construct: Bought protein; also called huTim-3-Fc; biotinylated Tim-3-Fc; not shown: Fc of the bought fusion protein
Test: SPR Biacore, human Tim-3 Fc;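 also: antibodies captured on an anti-FLAG sensor surface, Tim-3-Fc flowed over as analyte at 25 °C in HBS-EP+ buffer, rates fit with a 1:1 Langmuir model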
Would you mind telling me the reported koff of each entry?
Number only, in s⁻¹; omit the unit.

Which koff value is on record for h22E11-VK4-1 × h22E11-VH4-30-4 (antibody, V domains shown, Humanized m22E11) VH: QVQLQESGPGLVKPSQTLSLTCTVSGFSLTSYGVHWIRQPPGKGLEWLVVIWSDGSTTYNPSLKSRVTISKDTSKNQVSLKLSSVTAADTAVYYCARQGGYRYDDAMDYWGQGTLVTVSS VL: DIVLTQSPDSLAVSLGERATINCKASQSVDYDGNSYVNWYQQKPGQPPKLLIYAASNLESGVPDRFSGSGSGTDFTLTISSLQAEDVAVYYCQQSNEDPYTFGQGTKVEIK ? 0.00119

Now consider h22E11-VK2-28 × h22E11-VH5-51 (antibody, V domains shown, Humanized m22E11) VH: EVQLVQSGAEVKKPGESLKISCKVSGFSLTSYGVHWVRQMPGKGLEWLVVIWSDGSTTYNPSFQGQVTISKDKSISTVYLQWSSLKASDTAMYYCARQGGYRYDDAMDYWGQGTLVTVSS VL: DIVLTQSPLSLPVTPGEPASISCKASQSVDYDGNSYVNWYLQKPGQSPQLLIYAASNLESGVPDRFSGSGSGTDFTLKISRVEAEDVGVYYCQQSNEDPYTFGQGTKVEIK and answer again. 0.000903

Do the same for h22E11-VK2-28 × h22E11-VH4-30-4 (antibody, V domains shown, Humanized m22E11) VH: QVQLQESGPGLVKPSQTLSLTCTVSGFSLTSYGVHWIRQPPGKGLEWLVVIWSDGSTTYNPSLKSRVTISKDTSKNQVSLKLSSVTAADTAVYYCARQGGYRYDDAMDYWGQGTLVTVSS VL: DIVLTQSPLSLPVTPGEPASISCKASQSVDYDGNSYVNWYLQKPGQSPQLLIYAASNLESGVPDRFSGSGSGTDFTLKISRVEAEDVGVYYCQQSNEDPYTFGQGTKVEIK please 0.00109
